- ASSAY SYSTEM: T1, recombinant human PD-L1 His protein (human, UniProt Q9NZQ7 19-239)
- T1 construct: not shown: His tag
- T1 sequence (Q9NZQ7 19-239 limits assumed): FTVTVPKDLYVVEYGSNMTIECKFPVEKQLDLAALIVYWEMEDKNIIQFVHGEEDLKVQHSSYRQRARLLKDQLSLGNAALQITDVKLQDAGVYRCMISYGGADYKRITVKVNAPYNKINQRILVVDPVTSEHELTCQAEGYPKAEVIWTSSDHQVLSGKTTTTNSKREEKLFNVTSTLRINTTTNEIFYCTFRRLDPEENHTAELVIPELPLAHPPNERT
- PROCEDURE DETAILS: SPR Biacore T200, PD-L1 His on chip, sdAb analyte
READOUT: pKd
Would you please state pKd, meaning minus log10 of the concentration in mol/L, as a bare number?

Prompt: Provide pKd value for the following binder: AS06682 sdAb (VHH, His6-tagged llama sdAb) VHH: AVQLVESGGGLVQAGDSLRLSCTASGRTFLSYAVGWFRQAPGTEREFVAGIRWSGEHTDYAASVKGRFTISRDNAKNTVYLQMNSLKPEDTAVYYCAAHTTIATIPKKYEYEYWGQGTQVTVSS
Completion: 9.69

Prompt: Provide pKd value for the following binder: AS06703 sdAb (VHH, His6-tagged llama sdAb) VHH: EVQLVESGGGLVRAGGSLRLSCAASGRTFITYAIGWFRQAPGKEREFVTAINWSGSMTSYADSVKGRFTISRDNNKNTVYLQMNSLKPEDTALYYCAAHLGAIAPMSQSVYDYWGQGTQVTVSS
Completion: 10.41

Prompt: Provide pKd value for the following binder: AS06628 sdAb (VHH, His6-tagged llama sdAb) VHH: QVQLVESGGGLVQAGGSLRLSCAASGRTFITYAIGWFRQAPGKEREFVTAINWSGSMTSYADSVKGRFTISRDNNKNMVYLQMNSLKPEDTAVYYCAAHRGAIAPMTQSVYDYWGQGTQVTVSS
Completion: 10.28

Prompt: Provide pKd value for the following binder: AS06617 sdAb (VHH, His6-tagged llama sdAb) VHH: DVQLVESGGGLVQAGDSLRLSCAASGRTFISYAVGWFRQAPGSEREFVAGIRWNGIHTDYADSVKGRFTISRDNAKNTVTLEMTSLKPEDTAVYYCAAHRTIATIPEKYEYEYWGQGTQVTVSS
Completion: 9.60

The measurements presented in this section are drawn from patent US20240101716A1.
